Tested on: SW-620 colon
Assay: NCI-60 one-dose screen, 48 h (100 = growth as untreated, 0 = no growth, -100 = all killed)
Settings: 10 µM unless noted
Compounds without any hit were thinned out: in the full panel of roughly 83,000, 20% have a hit.
growth strictly under 40% means 1 (yes); at 40% or over means 0 (no).

Cc1cc(C)cc(NC(=O)Cn2nncc2CN2C(=O)CSC2=O)c1; 0 (no)

Item `CN(C)c1ccc(Nc2c3ccccc3nc3ccccc23)cc1` : growth beneath 40%, strictly?
1 (yes)

is_below(growth, 40%) for COc1ccc(C2CC(c3cccc(Nc4ccnc5cc(Cl)ccc45)c3)=NN2c2ccccc2)cc1 (stereo unspecified) ?
1 (yes)

API: query returns whether the molecule falls strictly under 40% in growth. Query: `NC(N)=N/N=C\c1cccc(OCc2ccccc2)c1`
1 (yes)

Please indicate whether the reported growth of `CCOCC(O)(c1ccc(Cl)cc1)c1ccc(Cl)cc1` is strictly below 40%.
0 (no)

I'd appreciate it if you could check whether `CCCCCCCCCCCCCCCCOc1ccc(S(=O)(=O)N(C)C)cc1[N+](=O)[O-]` has growth smaller than 40%.
0 (no)

---

Tested on: NCI-H460 lung
Test: NCI-60 one-dose screen, 48 h
Conditions: 10 µM unless noted
This is part of a sample that, as a whole, favours compounds with a hit. Of some 83,000 tested, about 20% had one in any assay. Active and inactive are the calls of the source. Rule for the calls: active = growth percent below 10; inactive = the rest.
Assign a class; possible classes are 1 = active, -1 = inactive

COc1ccc(-c2nc3ccc(Cc4ccc5nc(-c6ccc(OC)cc6)[nH]c5c4)cc3[nH]2)cc1; -1

Field: outcome | Entry: `Cc1ccc(NC(=O)c2nc(S(C)(=O)=O)oc2-c2ccc(F)cc2)cc1Nc1ccc2ncn(C)c(=O)c2c1`
-1

# lookup: test call for `CC(C)COC(=O)NC(C)(C)C`
-1

# outcome recorded in this test, key = COC(=O)C(C)NC1=C(Cl)C(=O)C(NC(C)C(=O)OC)=C(Cl)C1=O (stereo not given)
-1

---

Test system: HOP-92 NSCLC
Assay: NCI-60 one-dose screen, 48 h (100 = growth as untreated, 0 = no growth, -100 = all killed)
Conditions: 10 µM unless noted
The panel holds about 83,000 compounds, 20% with a hit somewhere; the sample as a whole holds those more often.
Reported Endpoint: growth (%)
Report as a plain number; the unit % is understood.

Check out these entries, answers already filled in.
Cc1c(C)c(C)c([N+](=O)[O-])c([N+](=O)[O-])c1C; 69
CSCCC1NC(=O)C(C(C)=Nc2ccccc2)=C1O (stereo not given); 108
CSC1=NC(=Nc2c(C)cccc2C)C2(CCC(C(C)(C)C)CC2)N1c1ccc(Cl)cc1 (stereo not given); 62.7
COC1CC(N)C2OC(c3ccccc3)OCC2O1 (stereo not given); 136
CCN(CC)CCCC(C)N/C(c1cccc(OC)c1)=c1\c(=O)[nH]n(-c2c3ccccc3nc3ccccc23)c(=O)\c1=C(/NC(C)CCCN(CC)CC)c1cccc(OC)c1 (stereo not given); -70

Output measured growth for this item: `O=C1c2ccccc2C(=O)c2c1oc1ccc3ccccc3c21`
102

Please supply the value of reported growth for the item `COc1ccc2[nH]cc(/C=C3\C(=O)Nc4ccccc43)c2c1`
31.3

// Input: `COc1ccc(/C=C(/C(=O)N2CCN(c3ccccc3)CC2)c2cc(OC)c(OC)c(OC)c2)cc1O` . Output its growth only.
94

Quick one: give measured growth for C=C(C)C1CCC2(C(=O)O)CCC3(C)C(CCC4C5(C)CCC(O)C(C)(C)C5CCC43C)C12 (stereo not given)
-26.2

Please look at this compound and report its growth: `CCCCn1cnc(-c2cc(-c3ccccc3)cc(C(F)(F)F)c2)n1`
76

Check the records and state growth for `CCn1c(CN2CCN(Cc3ccccc3)CC2)nc2cc(NC(=O)c3cccs3)ccc21`
-72.3

---

Tested on: MDA-MB-435 melanoma
Assay: NCI-60 one-dose screen, 48 h
Conditions: 10 µM unless noted
About 83,000 compounds went through this panel and 20% of them were active in at least one assay; those are over-represented in the sample as a whole. The source made the active and inactive calls. Rule for the calls: active = growth percent below 10; inactive = the rest.
The categories you may choose from are 1 (yes) for active, 0 (no) for inactive

Consider the following illustrative entries.
COc1cc(NC(C)CCCN)c2ncccc2c1Sc1ccc(Cl)cc1 (stereo not given); 0 (no)
CCC(C)C1NC(=O)c2nc(oc2-c2ccccc2)-c2csc(n2)-c2csc(n2)-c2nc(oc2C)-c2coc(n2)CNC(=O)C(C(C)CC)NC1=O (stereo not given); 1 (yes)
Cc1cc(NC(=O)c2ccc(N)cc2)ccc1N=Nc1ccc2cc(S(=O)(=O)O)cc(S(=O)(=O)O)c2c1; 0 (no)

Would you mind telling me which call this test gave CC(C)CC(NC(=O)OCC1c2ccccc2-c2ccccc21)C(=O)O (stereo not given) ?
0 (no)

// outcome(item) with item = Cc1ccc(C2CC(c3cccs3)=NN2c2ccc(S(N)(=O)=O)cc2)s1 (stereo not given)
0 (no)

---

Tested on: ACHN renal
Assay: NCI-60 one-dose screen, 48 h (100 = growth as untreated, 0 = no growth, -100 = all killed)
Conditions: 10 µM unless noted
Compounds without any hit were thinned out: in the full panel of roughly 83,000, 20% have a hit.
Reported Endpoint: growth (%)
Respond numerically; units are % and should not be typed.

Some solved entries appear below for comparison.
COc1ccc(C2CC(c3cccc(Nc4ccnc5cc(Cl)ccc45)c3)=NN2c2ccc(Cl)cc2)cc1 (stereo not given); 50.5
COc1ccc(-c2nc(-c3ccccc3OCc3ccccc3OC)nc(C)c2C(C)=O)cc1; 87
CCOC(=O)C(Nc1ccccc1)C(=O)OCC; 99.3

Output reported growth of the compound Oc1c(C(c2ccc(F)cc2)N2CCCCC2)ccc2cncnc12 (stereo not given) on ACHN renal.
10.9

Given `ClCc1cccc(CSc2ncnc3c2ncn3Cc2cccc(CCl)c2)c1` , report its growth on ACHN renal.
70.1

Recall the reported growth of `CN(CCO)c1ccc(N2Cc3ccccc3OC3=C2C(=O)c2c(O)ccc(O)c2C3=O)cn1` when tested on ACHN renal.
-100

---

System: SK-MEL-28 melanoma
Experiment: NCI-60 one-dose screen, 48 h (100 = growth as untreated, 0 = no growth, -100 = all killed)
Details: 10 µM unless noted
The panel holds about 83,000 compounds, 20% with a hit somewhere; the sample as a whole holds those more often.
Reported Endpoint: growth (%)
Field: numeric (%). Do not append units.

The examples below pair each entry with its known result.
C[C@@H](C[C@H](CC1CC1)c1ccccc1)c1ccc2ccccc2c1; 107
CSC(=S)N/N=C(\C)c1ccccn1; 42.4
Nc1ccc(C(OC(=O)c2cc3ccccc3c(Cc3c(O)c(C(=O)OC(c4ccc(N)cc4)(c4ccc(N)cc4)c4ccc(N)cc4)cc4ccccc34)c2O)(c2ccc(N)cc2)c2ccc(N)cc2)cc1; 33.9
CNC(=O)c1cc(Oc2ccc(NC(=O)c3nc(S(C)(=O)=O)sc3-c3ccc(F)cc3)cc2)ccn1; 57.9

Name the recorded growth of the compound listed here: `Brc1cccc(-n2ncc3c(Nc4ccc(-c5nnc(-c6ccccc6)o5)cc4)ncnc32)c1`
112

Tell me its growth given `NC(N)=N/N=C\c1cccc(OCc2ccccc2)c1` as the entry.
86

---

Documented growth across a set of compounds
Test system: RXF 393 renal
Assay: NCI-60 one-dose screen, 48 h (100 = growth as untreated, 0 = no growth, -100 = all killed)
Conditions: 10 µM unless noted
About 83,000 compounds went through this panel and 20% of them were active in at least one assay; those are over-represented in the sample as a whole.
Respond numerically; units are % and should not be typed.

CCCCCCCCCCCCCCCC1=NCC[N+]1(CCO)CCO; 34.9

Please list growth recorded for the compound `O=[N+]([O-])c1cccc([I+]c2ccccc2)c1`
72.4

Please indicate growth recorded for `C=CCn1c(C)nc2cc(Nc3nc(N4CCCC4)nc4nc[nH]c34)ccc21`
54.4

Provide one value: measured growth of `Nc1cccc(S(=O)(=O)c2cccc(N)c2)c1`
138

For the compound `C=CC[C@]1(O)CC[C@H]2[C@@H]3CCc4cc(O)ccc4[C@H]3CC[C@@]21C` , report growth.
102

Consider the compound `COc1ccc(-c2nc3ccc(Cc4ccc5nc(-c6ccc(OC)cc6)[nH]c5c4)cc3[nH]2)cc1` . State its measured growth.
93.9

Look up growth of O=C(/C=C/c1ccccc1)C(Br)C(Br)c1ccccc1 (configuration not stated) and report it.
-79.9

Using the record for `CC1CCN(Cc2ccc(NC(=O)c3cc4ccc5cccnc5c4[nH]3)cc2)CC1` , state its measured growth.
-3.5

---

Tested on: NCI-H522 lung
Test: NCI-60 one-dose screen, 48 h
Settings: 10 µM unless noted
The panel holds about 83,000 compounds, 20% with a hit somewhere; the sample as a whole holds those more often. Activity calls are given as the source filed them. How the source made its calls: active means growth percent below 10; inactive means the rest.
// allowed return values: active, inactive

Use these answered entries as a reference point.
COc1ccc2c(c1)CCCC21C(=O)Nc2ccccc21 (stereo not drawn); inactive
N#Cc1c(NN)n(C2OC(CO)C(O)C2O)c2ncnc(N)c12 (stereo not drawn); active
COc1cc(Cn2c(-c3ccccc3)cc3c2-c2oncc2CC3)cc(OC)c1OC; active

Lab log entry: C#CC[C@@H]1C[C@]2(C)[C@H]3CC[C@@H]4[C@H]5C(C(=C)C)CC[C@]5(C(=O)NCCN(CCN)CCN)CC[C@@]4(C)[C@]3(C)CC[C@H]2C(C)(C)[C@H]1OC(C)=O (stereo partly drawn) — outcome as called in the assay?
inactive

Recorded test call requested for `COCCn1c(Nc2ccc(C(=O)NO)cc2)nc2ccccc21`
inactive

Could you check what this test reported for `CC[C@H](Nc1nc(N)nc(C2CC2)c1C#N)c1nc2cccc(NCc3ccc(C(=O)NO)cc3)c2c(=O)n1-c1ccccc1` ?
active

Call for entry `COc1ccc(-c2nc(-c3ccccc3OCc3ccccc3OC)nc(C)c2C(C)=O)cc1` :
inactive

Outcome logged for `CC1(C)CC[C@]2(C(=O)N3CCNCC3)CC[C@]3(C)C(=CC[C@@H]4[C@@]5(C)CCC(=O)C(C)(C)[C@@H]5CC[C@]43C)[C@@H]2C1` in this assay:
inactive
